Where do the numbers come from? From paper PMC10178204.

- Test system: Escherichia coli CCUGT
- Measurement Conditions: MHB, 5 × 10^5 CFU/mL, 18 h, 35 °C, triplicate
Non-standard residues stand in square brackets, D forms with d. Residues, ends and D or L forms follow the SMILES beside them. *: point of attachment. Leu(ol) = CC(C)C[C@H](N)CO; Octanoyl = CCCCCCCC(=O)*; Aib = CC(C)(N)C(=O)O
Measurement Type: MIC Eco

Example results:
[[record]]
compound = "CCCCCCCC(=O)NC(C)(C)C(=O)N[C@@H](CCCCN)C(=O)N[C@@H](CC(C)C)C(=O)NC(C)(C)C(=O)N[C@@H](CCCCN)C(=O)N[C@@H](CCCCN)C(=O)N[C@@H](CC(C)C)C(=O)NC(C)(C)C(=O)NCC(=O)N[C@H](C(=O)N[C@@H](CC(C)C)C(N)=O)[C@@H](C)CC [Peptide 11] (Octanoyl-[Aib]KL[Aib]KKL[Aib]GIL-NH2)"
measurement_type = "MIC Eco"
result = "16 µg/mL"

[[record]]
compound = "CCCCCCCC(=O)NC(C)(C)C(=O)NCC(=O)N[C@@H](CC(C)C)C(=O)NC(C)(C)C(=O)NCC(=O)NCC(=O)N[C@@H](CC(C)C)C(=O)NC(C)(C)C(=O)N[C@@H](CCCCN)C(=O)N[C@H](C(=O)N[C@H](CO)CC(C)C)[C@@H](C)CC [Peptide 9] (Octanoyl-[Aib]GL[Aib]GGL[Aib]KI[Leu(ol)])"
measurement_type = "MIC Eco"
result = "> 128 µg/mL"

[[record]]
compound = "CCCCCCCC(=O)NC(C)(C)C(=O)NCC(=O)N[C@@H](CC(C)C)C(=O)NC(C)(C)C(=O)NCC(=O)NCC(=O)N[C@@H](CC(C)C)C(=O)NC(C)(C)C(=O)NCC(=O)N[C@H](C(=O)N[C@H](CO)CC(C)C)[C@@H](C)CC [Peptide 0, Trichogin GA IV, reference compound] (Octanoyl-[Aib]GL[Aib]GGL[Aib]GI[Leu(ol)])"
measurement_type = "MIC Eco"
result = "> 128 µg/mL"

[[record]]
compound = "CCCCCCCC(=O)N[C@@H](CCCCN)C(=O)N[C@@H](CC(C)C)C(=O)NC(C)(C)C(=O)N[C@@H](CC(C)C)C(N)=O [Peptide 17, 1-Oct-Lys-Leu-Aib-Leu-NH2] (Octanoyl-KL[Aib]L-NH2)"
measurement_type = "MIC Eco"
result = "> 128 µg/mL"

[[record]]
compound = "CCCCCCCC(=O)NC(C)(C)C(=O)N[C@@H](CCCCN)C(=O)N[C@@H](CC(C)C)C(=O)N[C@@H](CC(C)C)C(N)=O [Peptide 15, 1-Oct-Aib-Lys-Leu-Leu-NH2] (Octanoyl-[Aib]KLL-NH2)"
measurement_type = "MIC Eco"
result = "64 µg/mL"


Kindly review the next compound as well.
For the compound CCCCCCCC(=O)NC(C)(C)C(=O)N[C@@H](CCCCN)C(=O)N[C@@H](CC(C)C)C(=O)NC(C)(C)C(=O)N[C@@H](CCCCN)C(=O)NCC(=O)N[C@@H](CC(C)C)C(=O)NC(C)(C)C(=O)NCC(=O)N[C@H](C(=O)N[C@H](CO)CC(C)C)[C@@H](C)CC [Peptide 1] (Octanoyl-[Aib]KL[Aib]KGL[Aib]GI[Leu(ol)]) , report MIC Eco. 32 µg/mL
